Target: Alpha-bungarotoxin (Bungarus multicinctus)
Assay: alpha-bungarotoxin binders on microarray, profiling panel, artefact control for SMM control protein annotation, biochemical, small-molecule microarray, Alexa647 label, 635/667 nm fluorescence (AID 1117)
Conditions: alpha-BTX-A647 binding fluorescence, higher = more signal
MEASURED_QUANTITY: composite z-score
API note: the answer field is a bare number with no unit suffix.

Reference set, count: 2
>>> obs_value("CC(C)C(CO)N1C(=O)[C@@H]2[C@H]3C(=O)OCC=C[C@H]3OC23C=CCN(C(C)(C)C)C(=O)[C@@H]13 (stereo partly drawn)")
-0.0022
>>> obs_value("COCCOC(=O)N1C(=O)[C@@]2(c3ccccc31)[C@H](c1ccccc1OCCO)N1[C@H](c3ccccc3)[C@H](c3ccccc3)OC(=O)[C@H]1[C@@H]2C(=O)N1CCCCCCC1")
3.1

Problem: Query (compound): C=C[C@@H](C)[C@@H](OC(=O)Nc1ccc(SC)cc1)c1ccc(OCCO)cc1 ; field requested: composite z-score
Result: 0.954

Problem: Entry C=C(COC)C(=O)CC[C@@H](OC(=O)c1cccnc1)c1ccccc1OCCO please
Result: -0.387

Problem: Try [N-]=[N+]=NCc1ccccc1[C@@H]1OC(c2ccc(OCCCO)cc2)=N[C@]1(Cc1ccccc1N=[N+]=[N-])C(=O)NCCN1CCOCC1 next.
Result: 0.446

Problem: Next entry: CO[C@H]1O[C@H](CO)[C@@H](OC(=O)Nc2ccc(C#N)cc2)[C@@H]2OC(=O)[C@H](Cc3cccc(Br)c3)C/C=C/C[C@@H](Cc3cccc(Br)c3)C(=O)O[C@@H]12
Result: 0.764

Problem: Another compound: COc1ccc(C#Cc2ccc3c(c2)[C@]2(C(=O)N3)[C@H](c3ccc(OCCO)cc3)N3[C@H](c4ccccc4)[C@H](c4ccccc4)OC(=O)[C@H]3[C@@H]2C(=O)N2CCc3cc(OC)c(OC)cc3C2)cc1
Result: 0.841

###

Test system: Chordin-like protein 2 (CHRDL2)
Assay: CHRDL2 small-molecule binders, primary screen, biochemical, small-molecule microarray, 635 nm fluorescence (AID 1126);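 further: printed compound slides probed with Chrdl2 protein at 4 µg/mL for 1 h at 4 C; score merges 667 nm emission intensity with signal to noise over three replicate slides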
Conditions: small-molecule microarray binding, fluorescence 635 nm; higher = more signal
just bin them by composite z-score: lowest: < -0.6; middle: ≥ -0.6 and < 0.5; highest: ≥ 0.5

>>> class("C=C(C)C1CCC(C(O)C2C=CC3C(=O)N(C)C(=O)C3N2Nc2cc(OC)c(OC)c(OC)c2)CC1 (configuration not stated)")
"middle"

Problem: Looking at COc1cc2c(cc1O)C(c1ccc(CN3CCCC3)cc1)N(C)CC2 (configuration not stated) , which class would you pick?
Result: lowest

Problem: Also need CCCC=C(CCC)[C@@H](NS(=O)(=O)c1cccc2cccnc12)c1ccc(-c2ccccc2)cc1 , thanks.
Result: lowest

Problem: Another: COc1ccc([Si](C)(C)[C@H]2[C@H](CC(=O)N3Cc4ccccc4C[C@H]3CO)O[C@@]3(C(=O)N(Cc4ccc(N5C(=O)c6cccc7cccc5c67)cc4)c4ccccc43)[C@@H]2C)cc1
Result: highest

Problem: Okay, and COC(=O)[C@@]1(Cc2ccc(F)cc2)[C@H]2c3cc(C(=O)N4CCCC4)n(CC4CC4)c3C[C@H]2CN1C(=O)c1ccccc1 ?
Result: lowest

Problem: // next record COc1cc(NN2C(C(O)C3CCCCC3)C=CC3C(=O)N(c4ccccc4)C(=O)C32)cc(OC)c1OC (configuration not stated)
Result: lowest

###

Assay: HepG2 liver cancer cell viability effects, profiling panel, resazurin fluorescence, 24 h, PK04 Diversity Set (AID 1172); further: test concentration not given here
Conditions: higher = more signal
MEASURED_QUANTITY: z-score

Below: 3 compounds and their reported z-score.
>>> obs_value("CCOC(=O)C1=CCC(c2ccco2)N(S(=O)(=O)c2ccc(C)cc2)C1 (centres undefined)")
1.18
>>> obs_value("CC(C)C(=C=CC[C@H](O)c1cccc(OCCO)c1)CCO")
0.934
>>> obs_value("O=C1O[C@H](c2ccccc2)[C@H](c2ccccc2)N2[C@H]1[C@@H](C(=O)N1CCCCCCC1)[C@]1(C(=O)Nc3ccc(C#CC4(O)CCCCCC4)cc31)[C@H]2c1ccccc1OCCO")
1.72

Problem: Any idea what z-score was measured for C=C(CCCC)C(=O)CC[C@H](OC(C)=O)c1ccc(OCCO)cc1 ?
Result: 0.574

###

Molecular target: Pro-neuregulin-1, membrane-bound isoform (Homo sapiens)
Assay: NRG1 binders on small-molecule microarrays, primary screen, psychiatric disease protein project, biochemical, small-molecule microarray, fluorescence 635/667 (AID 1075);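 further: score combines 667 nm spot fluorescence with signal to noise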
Settings: NRG1 binding, 635 nm fluorescence, higher = more signal
MEASURED_QUANTITY: composite z-score

>>> obs_value("O=C(CS)NCCCCCCNC(=O)[C@@H]1C[C@@H]2C(=O)NCC(=O)N2[C@@H]1c1ccc(O)cc1")
-0.75
>>> obs_value("O=C1C2C=CC(C(O)c3ccc4c(c3)OCO4)N(Nc3ccccc3)C2C(=O)N1c1ccccc1 (centres undefined)")
1.46
>>> obs_value("[N-]=[N+]=NCc1ccccc1[C@H]1OC(c2ccc(OCCCO)cc2)=N[C@@]1(Cc1ccccc1)C(=O)NCCN1CCOCC1")
1.34

Next up:
Problem: GET /values?readout=composite z-score&system=Pro-neuregulin-1, membrane-bound isoform (Homo sapiens)&item= COCCCNC(=O)[C@@H]1c2ccccc2C(=O)N(C2Cc3ccccc3C2)[C@H]1c1ccc(CO)cc1
Result: 0.209

###

Assay: small-molecule binders of probe aNOTCH2, primary screen, biochemical, small-molecule microarray, 635/667 nm fluorescence (AID 1121);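 further: score merges feature fluorescence read at 667 nm with its signal to noise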
Conditions: higher = more signal
Form field: composite z-score (one value per entry).

Here are 5 compounds together with their reported answers.
>>> obs_value("[N-]=[N+]=Nc1ccccc1C[C@]1(C(=O)O)N=C(c2ccc(OCCCO)cc2)O[C@H]1c1ccccc1")
-0.121
>>> obs_value("CC(C)C(=C=CC[C@@H](O)c1cccc(OCCO)c1)C[C@@H](O)c1ccccn1")
-0.123
>>> obs_value("COc1ccc(C(O)C2C=CC3C(=O)N(c4ccccc4)C(=O)C3N2Nc2ccccc2)cc1 (centres undefined)")
-0.0501
>>> obs_value("O=C1OCCC/C=C\\[C@H]2OC34C=CCN(c5ccc6ccccc6c5)C(=O)[C@H]3N(CCCO)C(=O)[C@@H]4C12 (some centres undefined)")
-0.111
>>> obs_value("O=c1cccc(-c2ccc(F)cc2)o1")
-0.0527

Problem: I would be grateful if you could share the reported composite z-score for [N-]=[N+]=NCc1ccccc1C[C@]1(C(=O)N2CCOCC2)COC(c2ccc(OCCCO)cc2)=N1 .
Result: 0.126

Problem: For C=C(CCCC)/C(=C/C[C@H](OC(C)=O)c1ccc(OCCO)cc1)c1cc(C(=O)OC)ccc1OC then?
Result: -0.0743

Problem: Okay, and COCCOC(=O)N1C(=O)[C@@]2(c3cc(C#CCNC(N)=O)ccc31)[C@H](c1ccc(OCCO)cc1)N1[C@H](c3ccccc3)[C@H](c3ccccc3)OC(=O)[C@H]1[C@@H]2C(N)=O ?
Result: -0.01

Problem: Same read-out for O=C1NC(=O)C2C1C=CC(C(O)c1ccccn1)N2Nc1ccc(Cl)cc1Cl (centres undefined) ?
Result: 0.0554

Problem: Repeat with CCCC=C(CCC)[C@@H](NC(=O)CCc1ccccc1)c1ccc(C(F)(F)F)cc1
Result: -0.0095

Problem: Let us now turn to CC(C)[C@H]1NC(=O)[C@@]23C(=O)N[C@@H](Cc4ccccc4)C2[C@H](C)[C@@]2(C)O[C@H]2C3/C=C/C/C=C\CNC(=O)[C@H](Cc2ccccc2)NC1=O (some centres undefined)
Result: -0.19

Problem: And what about the compound CN(C)CCCNC(=O)[C@@H]1c2ccccc2C(=O)N(C2CCCCC2)[C@H]1c1ccc(CO)cc1 ?
Result: -0.0891

Problem: Next entry: COc1ccc(C(O)C2C=CC3C(=O)N(c4ccccc4)C(=O)C3N2Nc2ccccc2F)cc1 (centres undefined)
Result: 0.12

###

Below is a list of entries, each paired with its recorded composite z-score value.
Target: Albumin (Bos taurus)
Assay: bovine serum albumin binders on microarray, profiling panel, artefact control for SMM control protein annotation, biochemical, small-molecule microarray, Alexa647 label, 635/667 nm fluorescence (AID 1118);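 further: score merges 667 nm emission intensity and signal-to-noise per printed compound spot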
Settings: BSA-A647 binding, fluorescence 635 nm, higher = more signal
Quick one: just the number, no unit, thanks!

Solved cases (2 shown):
>>> obs_value("O=C1OCCC/C=C\\[C@H]2OC34C=CCN(c5ccc6ccccc6c5)C(=O)[C@H]3N(CCCO)C(=O)[C@@H]4C12 (some centres not stated)")
-0.0327
>>> obs_value("CCOC(=O)C[C@H]1[C@H](OC(=O)c2cc3ccccc3oc2=O)[C@@H](NC(=O)c2ccc3ccccc3c2)c2cc(OCCCO)ccc2N1C(=O)Cc1ccc(OC)cc1")
0.684

Problem: Find composite z-score (Albumin (Bos taurus)) for the entry CC(C)C(=C=CC[C@@H](O)c1cccc(OCCO)c1)C[C@@H](O)COCc1ccccc1
Result: 0.15

Problem: Ok, now C=C(/C(=C/C[C@@H](OC(=O)c1ccncc1)c1cccc(OCCO)c1)c1cnc2ccccc2c1)C(C)C
Result: 0.701

Problem: Let us now turn to CCOC(=O)C1=C[C@@H](C(C)(C)C)N(S(=O)(=O)c2ccc(C)cc2)[C@H]1c1cccc(Cl)c1
Result: 0.91

Problem: Can you handle COc1ccc(C(=O)Nc2cccc(CN3C(=O)[C@@]4(O[C@@H](CC(=O)N(CCO)Cc5ccccc5)[C@H]([Si](C)(C)c5ccc(OC)cc5)[C@H]4C)c4ccccc43)c2)cc1 next?
Result: 0.441

Problem: Also CC(C)CNC(=O)[C@@]1(c2ccc([N+](=O)[O-])cc2)CC(=O)N(C2CCCCC2)[C@@H]1c1ccc(CO)cc1 ?
Result: 0.819

Values compiled from PubChem BioAssay.
